These measurements were taken from patent US20260274955A1.

Would you kindly list Anti-CD28 Fab signal in the presence of CD28 for each of these binders?
molecular target: Anti-CD28 Fab (SEQ ID NOs: 202, 203); assay: phage binding ELISA on captured Fab, competitor CD28 antigen;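 also: clonal phage supernatant binding in wells preincubated with CD28 antigen in blocking buffer, detected by HRP-conjugated anti-M13 antibody ELISA, compared with blocking buffer alone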
Sequence (VH, as listed by the source, chain 1 of 2): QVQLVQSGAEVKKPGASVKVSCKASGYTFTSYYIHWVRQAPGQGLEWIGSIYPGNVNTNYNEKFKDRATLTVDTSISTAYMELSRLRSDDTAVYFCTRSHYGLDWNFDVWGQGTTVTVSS
Sequence (VL, as listed by the source, chain 2 of 2): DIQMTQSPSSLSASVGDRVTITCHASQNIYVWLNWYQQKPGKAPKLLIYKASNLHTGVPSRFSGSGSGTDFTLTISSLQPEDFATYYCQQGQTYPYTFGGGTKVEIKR

Incoming: # input binder: YCAGHSAQYMWKCL [Phage-793] ; wanted: its Anti-CD28 Fab signal in the presence of CD28
Outgoing: 0.07

Incoming: # input binder: YCEGHVELYRQKCL [Phage-864] ; wanted: its Anti-CD28 Fab signal in the presence of CD28
Outgoing: 0.06

Incoming: # input binder: YCDGHTGVYKWKCI [Phage-827] ; wanted: its Anti-CD28 Fab signal in the presence of CD28
Outgoing: 0.06

Incoming: # input binder: YCVGHSPEYIWKCL [Phage-796] ; wanted: its Anti-CD28 Fab signal in the presence of CD28
Outgoing: 0.06
